All values here come from ChEMBL document CHEMBL3108764.

# experimental.system: Poly [ADP-ribose] polymerase tankyrase-1 (Homo sapiens)
# Sequence (O95271 whole entry): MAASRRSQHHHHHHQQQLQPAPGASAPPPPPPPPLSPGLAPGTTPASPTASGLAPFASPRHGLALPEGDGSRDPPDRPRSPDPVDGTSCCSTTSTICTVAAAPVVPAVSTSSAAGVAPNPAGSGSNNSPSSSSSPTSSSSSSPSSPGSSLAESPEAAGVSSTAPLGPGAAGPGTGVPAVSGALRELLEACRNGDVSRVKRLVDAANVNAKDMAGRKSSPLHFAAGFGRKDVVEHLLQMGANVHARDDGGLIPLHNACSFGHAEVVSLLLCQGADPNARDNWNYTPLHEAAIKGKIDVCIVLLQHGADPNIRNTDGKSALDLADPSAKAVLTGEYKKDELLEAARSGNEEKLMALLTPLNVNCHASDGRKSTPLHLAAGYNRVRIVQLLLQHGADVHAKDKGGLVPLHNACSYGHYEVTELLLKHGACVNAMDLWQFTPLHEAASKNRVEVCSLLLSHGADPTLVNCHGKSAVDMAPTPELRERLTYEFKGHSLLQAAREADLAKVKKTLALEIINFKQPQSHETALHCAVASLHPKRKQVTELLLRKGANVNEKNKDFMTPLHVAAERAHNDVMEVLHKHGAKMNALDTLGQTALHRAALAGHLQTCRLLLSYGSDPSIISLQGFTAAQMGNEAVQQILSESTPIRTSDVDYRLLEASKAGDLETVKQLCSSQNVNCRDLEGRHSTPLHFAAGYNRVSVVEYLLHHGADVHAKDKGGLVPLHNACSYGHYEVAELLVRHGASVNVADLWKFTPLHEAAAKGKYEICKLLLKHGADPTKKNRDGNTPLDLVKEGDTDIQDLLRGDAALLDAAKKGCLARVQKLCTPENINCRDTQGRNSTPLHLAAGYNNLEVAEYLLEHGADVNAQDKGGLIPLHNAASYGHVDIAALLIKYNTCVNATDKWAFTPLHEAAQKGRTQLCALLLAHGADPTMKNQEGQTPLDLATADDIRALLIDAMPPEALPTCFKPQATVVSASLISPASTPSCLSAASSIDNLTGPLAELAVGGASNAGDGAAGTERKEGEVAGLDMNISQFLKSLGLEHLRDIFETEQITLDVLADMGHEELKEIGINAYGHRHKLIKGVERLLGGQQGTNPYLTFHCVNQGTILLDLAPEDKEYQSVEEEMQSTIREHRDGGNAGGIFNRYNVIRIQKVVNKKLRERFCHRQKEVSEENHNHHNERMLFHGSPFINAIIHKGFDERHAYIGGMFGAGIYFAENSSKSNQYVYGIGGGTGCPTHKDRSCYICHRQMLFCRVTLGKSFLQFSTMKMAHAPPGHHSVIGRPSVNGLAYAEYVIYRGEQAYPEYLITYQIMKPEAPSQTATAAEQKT
# procedure.summary: Inhibition of human TNKS1 after 1 to 2 hrs by fluorescence polarization method
readout: pIC50
Numbers only, as −log10 of the molar value.

entry.smiles | pIC50
N#Cc1c(Cn2c(=O)n(C[C@H]3CC[C@H](C(=O)O)CC3)c(=O)c3ccccc32)cccc1C(F)(F)F | 8.10

Let's switch to this compound now.
Query block: Quick check: pIC50 of `Cc1c(F)ccc2c1c(=O)n(C[C@H]1CC[C@H](C(=O)O)CC1)c(=O)n2Cc1cccc(C(F)(F)F)c1C#N` ?
Result block: 8.20
